Parameter: inhibition at 10 µM. Scope: all listed entries.
- EXPERIMENTAL_TARGET: PKD3 (Homo sapiens (Human), UniProt O94806)
- Sequence (O94806 whole entry): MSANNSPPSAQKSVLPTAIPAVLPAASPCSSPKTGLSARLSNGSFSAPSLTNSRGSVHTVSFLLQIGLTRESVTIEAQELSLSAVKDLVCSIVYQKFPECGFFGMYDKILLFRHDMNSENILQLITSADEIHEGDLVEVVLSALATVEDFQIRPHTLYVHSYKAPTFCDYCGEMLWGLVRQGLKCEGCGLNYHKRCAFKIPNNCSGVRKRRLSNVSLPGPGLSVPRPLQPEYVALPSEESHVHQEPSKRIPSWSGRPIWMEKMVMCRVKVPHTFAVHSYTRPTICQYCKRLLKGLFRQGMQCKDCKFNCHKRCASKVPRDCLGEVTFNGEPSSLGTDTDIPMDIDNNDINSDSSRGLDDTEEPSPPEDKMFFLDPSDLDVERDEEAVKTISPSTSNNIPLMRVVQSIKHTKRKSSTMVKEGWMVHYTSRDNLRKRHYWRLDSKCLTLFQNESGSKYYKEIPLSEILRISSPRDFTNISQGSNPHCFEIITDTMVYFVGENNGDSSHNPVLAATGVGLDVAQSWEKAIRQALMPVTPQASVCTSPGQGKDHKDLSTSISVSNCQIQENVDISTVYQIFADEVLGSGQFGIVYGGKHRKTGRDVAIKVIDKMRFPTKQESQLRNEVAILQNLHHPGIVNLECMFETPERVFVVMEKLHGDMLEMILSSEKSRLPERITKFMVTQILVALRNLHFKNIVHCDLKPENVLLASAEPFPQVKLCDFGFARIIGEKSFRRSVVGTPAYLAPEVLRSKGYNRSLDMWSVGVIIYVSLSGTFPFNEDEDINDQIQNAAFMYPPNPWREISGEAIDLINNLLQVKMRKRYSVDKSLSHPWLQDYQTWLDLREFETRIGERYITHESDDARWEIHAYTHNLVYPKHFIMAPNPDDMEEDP
- ASSAY_NOTES: KiNativ assay
- Format: binding
- APPLIED_CONDITIONS: H929 live cell, read-out: inhibition (10 μM)
ASSAY_ENDPOINT: inhibition at 10 µM (%)

COMPOUND	EXPERIMENTAL_TARGET	ASSAY_ENDPOINT	NUMERIC_RESULT
COc1cc(NS(=O)(=O)C2CC2)ccc1-c1cnc(N)c(-c2ccc3c(c2)CCNC3=O)c1 [Compound I-50]	PKD3 (Homo sapiens (Human), UniProt O94806)	inhibition at 10 µM	69.7
Nc1ncc(-c2cccc3ncsc23)cc1-c1ccc2c(c1)CCNC2=O [Compound I-13]	PKD3 (Homo sapiens (Human), UniProt O94806)	inhibition at 10 µM	69.4
CN(C1CC1)S(=O)(=O)c1ccc(-c2cnc(N)c(-c3ccc4c(c3)CCNC4=O)c2)c(F)c1 [Compound I-28]	PKD3 (Homo sapiens (Human), UniProt O94806)	inhibition at 10 µM	36.6
Nc1ncc(-c2cccc([N+](=O)[O-])c2F)cc1-c1ccc2c(c1)CCNC2=O [Compound I-9]	PKD3 (Homo sapiens (Human), UniProt O94806)	inhibition at 10 µM	74.2
Nc1ncc(-c2ccc(NS(=O)(=O)C3CC3)cc2F)cc1-c1ccc2c(c1)CCNC2=O [Compound I-51]	PKD3 (Homo sapiens (Human), UniProt O94806)	inhibition at 10 µM	74.8
Nc1ncc(-c2ccc(NS(=O)(=O)C3CC3)cc2OC2CCCCC2)cc1-c1ccc2c(c1)CCNC2=O [Compound I-65]	PKD3 (Homo sapiens (Human), UniProt O94806)	inhibition at 10 µM	-24.2

* * *

- EXPERIMENTAL_TARGET: MLK3 (Homo sapiens (Human))
- Sequence (Q16584 whole entry): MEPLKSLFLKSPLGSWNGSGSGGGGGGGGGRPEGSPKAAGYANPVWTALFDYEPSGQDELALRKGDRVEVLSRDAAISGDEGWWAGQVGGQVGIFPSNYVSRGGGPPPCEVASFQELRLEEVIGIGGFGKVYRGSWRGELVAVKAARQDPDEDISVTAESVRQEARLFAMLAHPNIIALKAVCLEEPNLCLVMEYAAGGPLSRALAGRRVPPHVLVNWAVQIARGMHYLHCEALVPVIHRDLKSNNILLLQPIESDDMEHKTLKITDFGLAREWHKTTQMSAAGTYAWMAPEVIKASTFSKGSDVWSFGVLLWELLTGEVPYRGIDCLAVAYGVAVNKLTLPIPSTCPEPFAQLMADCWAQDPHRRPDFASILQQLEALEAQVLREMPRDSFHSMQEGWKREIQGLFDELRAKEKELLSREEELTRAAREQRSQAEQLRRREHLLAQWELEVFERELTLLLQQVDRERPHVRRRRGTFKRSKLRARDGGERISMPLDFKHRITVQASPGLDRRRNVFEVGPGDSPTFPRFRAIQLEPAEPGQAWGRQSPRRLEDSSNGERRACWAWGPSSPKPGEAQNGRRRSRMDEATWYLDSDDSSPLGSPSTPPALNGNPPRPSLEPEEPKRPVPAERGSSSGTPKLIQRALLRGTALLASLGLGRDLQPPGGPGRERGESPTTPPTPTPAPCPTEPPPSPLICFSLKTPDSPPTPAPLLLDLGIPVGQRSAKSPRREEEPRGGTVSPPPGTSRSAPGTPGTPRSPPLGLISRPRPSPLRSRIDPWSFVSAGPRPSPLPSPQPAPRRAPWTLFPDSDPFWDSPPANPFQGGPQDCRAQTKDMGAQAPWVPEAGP
- ASSAY_NOTES: KiNativ assay
- Format: binding
- APPLIED_CONDITIONS: H929 live cell, read-out: inhibition (10 μM)
ASSAY_ENDPOINT: inhibition at 10 µM (%)

COMPOUND	NUMERIC_RESULT
Nc1ncc(-c2ccc(NS(=O)(=O)C3CC3)cc2F)cc1-c1ccc2c(c1)CCNC2=O [Compound I-51]	42.3
COc1cc(NS(=O)(=O)C2CC2)ccc1-c1cnc(N)c(-c2ccc3c(c2)CCNC3=O)c1 [Compound I-50]	40.9
Nc1ncc(-c2cccc3ncsc23)cc1-c1ccc2c(c1)CCNC2=O [Compound I-13]	-3.9
CN(C1CC1)S(=O)(=O)c1ccc(-c2cnc(N)c(-c3ccc4c(c3)CCNC4=O)c2)c(F)c1 [Compound I-28]	11.7
Nc1ncc(-c2ccc(NS(=O)(=O)C3CC3)cc2OC2CCCCC2)cc1-c1ccc2c(c1)CCNC2=O [Compound I-65]	82.7
Nc1ncc(-c2cccc([N+](=O)[O-])c2F)cc1-c1ccc2c(c1)CCNC2=O [Compound I-9]	62.9

* * *

- EXPERIMENTAL_TARGET: MARK4 (Homo sapiens (Human))
- Sequence (Q96L34 whole entry): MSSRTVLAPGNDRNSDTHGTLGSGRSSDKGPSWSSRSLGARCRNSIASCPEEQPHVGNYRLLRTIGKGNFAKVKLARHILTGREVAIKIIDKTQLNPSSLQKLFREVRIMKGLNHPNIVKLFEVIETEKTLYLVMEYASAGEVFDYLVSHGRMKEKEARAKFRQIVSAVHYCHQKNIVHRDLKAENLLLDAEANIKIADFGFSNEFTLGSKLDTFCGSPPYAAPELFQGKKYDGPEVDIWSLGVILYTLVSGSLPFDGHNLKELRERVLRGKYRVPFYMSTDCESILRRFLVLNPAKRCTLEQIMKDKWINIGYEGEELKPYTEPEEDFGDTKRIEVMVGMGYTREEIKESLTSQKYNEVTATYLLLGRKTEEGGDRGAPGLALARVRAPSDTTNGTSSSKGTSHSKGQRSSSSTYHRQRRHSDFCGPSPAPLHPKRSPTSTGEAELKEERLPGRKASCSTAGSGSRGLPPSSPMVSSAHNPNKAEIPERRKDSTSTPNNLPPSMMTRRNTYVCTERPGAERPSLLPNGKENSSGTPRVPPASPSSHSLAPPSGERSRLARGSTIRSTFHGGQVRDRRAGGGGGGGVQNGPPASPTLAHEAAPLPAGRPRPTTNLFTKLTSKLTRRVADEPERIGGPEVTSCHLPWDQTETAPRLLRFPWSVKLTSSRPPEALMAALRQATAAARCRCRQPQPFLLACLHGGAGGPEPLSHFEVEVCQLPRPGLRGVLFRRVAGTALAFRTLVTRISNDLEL
- ASSAY_NOTES: KiNativ assay
- Type: binding
- APPLIED_CONDITIONS: H929 live cell, read-out: inhibition (10 μM)
- Description: Biochemical IC50s of the compounds of the present disclosure against various kinases were measured in a KiNativ assay. Compounds were screened in duplicate at 10 μM in H929 live cell. IC50 was measured via Mass spectroscopy (MS).
Entries and their inhibition at 10 µM values follow.
ASSAY_ENDPOINT: inhibition at 10 µM (%)

RECORD_SMILES	QUALIFIER	NUMERIC_RESULT
Nc1ncc(-c2ccc(NS(=O)(=O)C3CC3)cc2F)cc1-c1ccc2c(c1)CCNC2=O	=	22.2
COc1cc(NS(=O)(=O)C2CC2)ccc1-c1cnc(N)c(-c2ccc3c(c2)CCNC3=O)c1	=	6.8
Nc1ncc(-c2cccc([N+](=O)[O-])c2F)cc1-c1ccc2c(c1)CCNC2=O	>	75
Nc1ncc(-c2cccc3ncsc23)cc1-c1ccc2c(c1)CCNC2=O	=	39.8
Nc1ncc(-c2ccc(NS(=O)(=O)C3CC3)cc2OC2CCCCC2)cc1-c1ccc2c(c1)CCNC2=O	=	-1.1
CN(C1CC1)S(=O)(=O)c1ccc(-c2cnc(N)c(-c3ccc4c(c3)CCNC4=O)c2)c(F)c1	=	23.1

* * *

We begin with a simple list: items and their reported inhibition at 10 µM.
- EXPERIMENTAL_TARGET: PRP4 (Homo sapiens (Human), UniProt Q13523)
- ASSAY_NOTES: KiNativ assay
- Assay type: binding
- APPLIED_CONDITIONS: H929 live cell, read-out: inhibition (10 μM)
ASSAY_ENDPOINT: inhibition at 10 µM (%)

RECORD_SMILES	ASSAY_ENDPOINT	UNIT_SPEC	NUMERIC_RESULT
Nc1ncc(-c2cccc([N+](=O)[O-])c2F)cc1-c1ccc2c(c1)CCNC2=O	inhibition at 10 µM	%	70.2
Nc1ncc(-c2cccc3ncsc23)cc1-c1ccc2c(c1)CCNC2=O	inhibition at 10 µM	%	73.4
Nc1ncc(-c2ccc(NS(=O)(=O)C3CC3)cc2OC2CCCCC2)cc1-c1ccc2c(c1)CCNC2=O	inhibition at 10 µM	%	-19.3
CN(C1CC1)S(=O)(=O)c1ccc(-c2cnc(N)c(-c3ccc4c(c3)CCNC4=O)c2)c(F)c1	inhibition at 10 µM	%	3.7
COc1cc(NS(=O)(=O)C2CC2)ccc1-c1cnc(N)c(-c2ccc3c(c2)CCNC3=O)c1	inhibition at 10 µM	%	-17.9
Nc1ncc(-c2ccc(NS(=O)(=O)C3CC3)cc2F)cc1-c1ccc2c(c1)CCNC2=O	inhibition at 10 µM	%	10.2

* * *

- EXPERIMENTAL_TARGET: LKB1 (Homo sapiens (Human))
- Sequence (Q15831 whole entry): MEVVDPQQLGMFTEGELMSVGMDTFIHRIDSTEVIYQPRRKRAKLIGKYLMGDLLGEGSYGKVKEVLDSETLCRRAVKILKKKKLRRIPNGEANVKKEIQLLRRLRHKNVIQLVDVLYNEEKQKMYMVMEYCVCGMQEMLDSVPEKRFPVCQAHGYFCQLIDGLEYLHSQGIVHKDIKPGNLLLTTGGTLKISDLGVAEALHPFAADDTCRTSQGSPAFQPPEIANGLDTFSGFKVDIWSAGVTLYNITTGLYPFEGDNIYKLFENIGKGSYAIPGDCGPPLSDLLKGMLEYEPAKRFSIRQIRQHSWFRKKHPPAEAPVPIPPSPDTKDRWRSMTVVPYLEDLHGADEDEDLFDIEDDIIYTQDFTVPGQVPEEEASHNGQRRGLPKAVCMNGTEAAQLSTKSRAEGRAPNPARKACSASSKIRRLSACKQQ
- ASSAY_NOTES: KiNativ assay
- Type: binding
- APPLIED_CONDITIONS: H929 live cell, read-out: inhibition (10 μM)
ASSAY_ENDPOINT: inhibition at 10 µM (%)

RECORD_SMILES	UNIT_SPEC	NUMERIC_RESULT
Nc1ncc(-c2cccc3ncsc23)cc1-c1ccc2c(c1)CCNC2=O	%	4.3
CN(C1CC1)S(=O)(=O)c1ccc(-c2cnc(N)c(-c3ccc4c(c3)CCNC4=O)c2)c(F)c1	%	-0.6
Nc1ncc(-c2cccc([N+](=O)[O-])c2F)cc1-c1ccc2c(c1)CCNC2=O	%	4.5
COc1cc(NS(=O)(=O)C2CC2)ccc1-c1cnc(N)c(-c2ccc3c(c2)CCNC3=O)c1	%	-1.1
Nc1ncc(-c2ccc(NS(=O)(=O)C3CC3)cc2F)cc1-c1ccc2c(c1)CCNC2=O	%	5.1
Nc1ncc(-c2ccc(NS(=O)(=O)C3CC3)cc2OC2CCCCC2)cc1-c1ccc2c(c1)CCNC2=O	%	27.4

* * *

Listing of recorded inhibition at 10 µM by entry.
- EXPERIMENTAL_TARGET: NuaK1 (Homo sapiens (Human))
- Sequence (O60285 whole entry): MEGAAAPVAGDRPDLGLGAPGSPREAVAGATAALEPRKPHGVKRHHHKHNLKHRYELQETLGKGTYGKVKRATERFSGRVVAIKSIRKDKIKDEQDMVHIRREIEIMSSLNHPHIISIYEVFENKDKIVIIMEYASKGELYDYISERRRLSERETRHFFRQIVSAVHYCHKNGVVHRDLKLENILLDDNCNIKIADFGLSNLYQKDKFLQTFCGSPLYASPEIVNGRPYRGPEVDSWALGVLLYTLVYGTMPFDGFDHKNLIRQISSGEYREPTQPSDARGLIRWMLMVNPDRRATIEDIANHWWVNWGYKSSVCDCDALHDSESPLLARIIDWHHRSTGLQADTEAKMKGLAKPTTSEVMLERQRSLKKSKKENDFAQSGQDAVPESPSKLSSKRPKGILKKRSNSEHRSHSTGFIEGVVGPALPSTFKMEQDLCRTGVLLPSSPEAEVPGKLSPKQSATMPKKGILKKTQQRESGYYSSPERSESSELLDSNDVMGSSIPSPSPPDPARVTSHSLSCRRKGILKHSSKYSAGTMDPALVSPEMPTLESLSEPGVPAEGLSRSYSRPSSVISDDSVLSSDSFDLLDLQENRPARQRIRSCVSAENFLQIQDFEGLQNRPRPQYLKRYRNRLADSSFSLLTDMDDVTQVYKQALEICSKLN
- ASSAY_NOTES: KiNativ assay
- Type: binding
- APPLIED_CONDITIONS: H929 live cell, read-out: inhibition (10 μM)
ASSAY_ENDPOINT: inhibition at 10 µM (%)

RECORD_SMILES	NUMERIC_RESULT
Nc1ncc(-c2cccc3ncsc23)cc1-c1ccc2c(c1)CCNC2=O	71.7
Nc1ncc(-c2ccc(NS(=O)(=O)C3CC3)cc2F)cc1-c1ccc2c(c1)CCNC2=O	71.9
COc1cc(NS(=O)(=O)C2CC2)ccc1-c1cnc(N)c(-c2ccc3c(c2)CCNC3=O)c1	67.9

* * *

- EXPERIMENTAL_TARGET: MARK3 (Homo sapiens (Human))
- Sequence (P27448 whole entry): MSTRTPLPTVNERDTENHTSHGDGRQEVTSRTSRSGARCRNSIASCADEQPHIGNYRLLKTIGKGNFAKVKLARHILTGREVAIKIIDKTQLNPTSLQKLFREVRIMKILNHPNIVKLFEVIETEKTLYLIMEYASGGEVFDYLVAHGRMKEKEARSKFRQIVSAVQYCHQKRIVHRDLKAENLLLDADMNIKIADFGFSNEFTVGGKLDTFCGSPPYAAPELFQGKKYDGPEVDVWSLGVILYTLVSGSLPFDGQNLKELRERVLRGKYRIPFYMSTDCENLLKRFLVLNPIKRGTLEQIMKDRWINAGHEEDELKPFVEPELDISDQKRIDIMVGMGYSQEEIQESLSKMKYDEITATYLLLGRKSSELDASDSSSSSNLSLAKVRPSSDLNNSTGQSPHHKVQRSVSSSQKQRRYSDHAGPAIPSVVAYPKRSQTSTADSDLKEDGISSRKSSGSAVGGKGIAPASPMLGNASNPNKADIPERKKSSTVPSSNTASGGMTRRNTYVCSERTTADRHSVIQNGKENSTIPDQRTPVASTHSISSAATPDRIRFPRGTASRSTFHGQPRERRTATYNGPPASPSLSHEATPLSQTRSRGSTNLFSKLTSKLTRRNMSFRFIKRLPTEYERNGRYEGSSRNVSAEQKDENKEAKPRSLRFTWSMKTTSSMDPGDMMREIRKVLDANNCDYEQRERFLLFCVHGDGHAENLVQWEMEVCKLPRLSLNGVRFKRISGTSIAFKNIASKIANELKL
- ASSAY_NOTES: KiNativ assay
- Format: binding
- APPLIED_CONDITIONS: H929 live cell, read-out: inhibition (10 μM)

RECORD_SMILES	inhibition at 10 µM (%)
Nc1ncc(-c2cccc([N+](=O)[O-])c2F)cc1-c1ccc2c(c1)CCNC2=O	78.3
CN(C1CC1)S(=O)(=O)c1ccc(-c2cnc(N)c(-c3ccc4c(c3)CCNC4=O)c2)c(F)c1	14.5
Nc1ncc(-c2ccc(NS(=O)(=O)C3CC3)cc2F)cc1-c1ccc2c(c1)CCNC2=O	4.8

* * *

- EXPERIMENTAL_TARGET: IRAK4 (Homo sapiens (Human), UniProt Q9NWZ3)
- Sequence (Q9NWZ3 whole entry): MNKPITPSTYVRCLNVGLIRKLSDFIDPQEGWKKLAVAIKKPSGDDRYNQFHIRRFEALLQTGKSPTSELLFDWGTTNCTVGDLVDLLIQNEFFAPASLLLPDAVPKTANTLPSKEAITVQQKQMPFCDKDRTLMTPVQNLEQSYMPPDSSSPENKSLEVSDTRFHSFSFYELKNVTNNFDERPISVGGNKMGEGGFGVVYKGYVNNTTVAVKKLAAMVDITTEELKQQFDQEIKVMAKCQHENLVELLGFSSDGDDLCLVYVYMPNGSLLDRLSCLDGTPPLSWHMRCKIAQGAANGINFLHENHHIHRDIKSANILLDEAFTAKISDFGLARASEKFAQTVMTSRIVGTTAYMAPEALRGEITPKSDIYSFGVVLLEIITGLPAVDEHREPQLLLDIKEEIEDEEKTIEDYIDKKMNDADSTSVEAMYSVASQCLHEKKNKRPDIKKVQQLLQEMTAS
- ASSAY_NOTES: KiNativ assay
- Format: binding
- APPLIED_CONDITIONS: H929 live cell, read-out: inhibition (10 μM)
Catalogue of compounds with associated inhibition at 10 µM

RECORD_SMILES	UNIT_SPEC	inhibition at 10 µM
Nc1ncc(-c2ccc(NS(=O)(=O)C3CC3)cc2F)cc1-c1ccc2c(c1)CCNC2=O	%	16.4
CN(C1CC1)S(=O)(=O)c1ccc(-c2cnc(N)c(-c3ccc4c(c3)CCNC4=O)c2)c(F)c1	%	-0.7
Nc1ncc(-c2cccc([N+](=O)[O-])c2F)cc1-c1ccc2c(c1)CCNC2=O	%	-14.1
